Form field: EC50 Fold Change (+BP/-BP), hIL-18 reporter assay (one value per entry).
TGT: T1, hIL-18BP-hFc (human, UniProt O95998 31-194, limits assumed)
T1 sequence (looked up): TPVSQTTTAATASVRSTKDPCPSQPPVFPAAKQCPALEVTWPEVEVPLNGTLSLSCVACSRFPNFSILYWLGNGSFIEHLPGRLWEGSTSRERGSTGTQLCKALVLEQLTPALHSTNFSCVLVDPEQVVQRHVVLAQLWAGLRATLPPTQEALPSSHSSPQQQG
ASSAY: cell-based or functional assay
# answer = value followed by unit

IL-18 variant polypeptide M19 (ligand) YFPKLKSKLSVIRNLNDQVLFIDQGNRPLFEDMTDSDCRDNAPRTIFIISMYKHSEQRGMAVTISVKCEKISTLSCENKIISFKEMNPPDAIKDTKSDIIFFQRSVPGHDNKMQFESSSYEGYFLACEKERDLFKLILKKEDELGDRSIMFTVQNED = 0.47 fold

From here, focus on the item given below.
binder IL-18 variant polypeptide M21 (ligand) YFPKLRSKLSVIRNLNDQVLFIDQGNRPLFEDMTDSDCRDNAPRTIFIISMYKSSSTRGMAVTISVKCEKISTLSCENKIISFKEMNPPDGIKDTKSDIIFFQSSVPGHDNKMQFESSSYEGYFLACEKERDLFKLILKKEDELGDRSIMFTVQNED , EC50 Fold Change (+BP/-BP), hIL-18 reporter assay observed: 1.11 fold
